Listed below: Killing percentage, ADCC (PBMC, HEK293-CLDN18.2 cells), 0 µg/ml values for each entry.
target: Claudin 18.2 (CLDN18.2), expressed on CHOS-CLDN 18.2 / HEK293-CLDN 18.2 / HCC827-CLDN 18.2 cells (human, UniProt P56856-2 1-261); experiment: cell-based or functional assay
Return type: number; implicit unit %.

1. QP14451440 (antibody, human IgG1, kappa, V domains shown, Humanized from QP192193; also called QP14401445) VH: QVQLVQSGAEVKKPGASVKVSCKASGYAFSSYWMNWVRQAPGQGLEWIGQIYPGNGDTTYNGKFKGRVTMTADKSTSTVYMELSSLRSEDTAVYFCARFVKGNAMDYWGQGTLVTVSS VL: DIVMTQSPDSLAVSLGERATISCKSSQSLLNSGNQKNYLTWYQQKPGQPPKLLIYWASTRESGVPDRFSGSGSGTDFTLTISSLQAEDVAVYYCQNAYSYPFTFGQGTKLEIKR
5.43
2. QP14631461 (antibody, human IgG1, kappa, V domains shown, also called QP14611463) VH: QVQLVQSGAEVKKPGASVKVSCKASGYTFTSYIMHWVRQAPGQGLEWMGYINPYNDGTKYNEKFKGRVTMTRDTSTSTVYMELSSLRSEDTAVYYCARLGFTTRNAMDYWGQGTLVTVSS VL: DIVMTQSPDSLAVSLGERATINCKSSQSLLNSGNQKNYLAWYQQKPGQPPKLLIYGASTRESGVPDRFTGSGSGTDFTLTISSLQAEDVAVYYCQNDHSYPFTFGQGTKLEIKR
4.88
3. QP14371433 (antibody, human IgG1, kappa, V domains shown, Humanized from QP190191; also called QP14331437) VH: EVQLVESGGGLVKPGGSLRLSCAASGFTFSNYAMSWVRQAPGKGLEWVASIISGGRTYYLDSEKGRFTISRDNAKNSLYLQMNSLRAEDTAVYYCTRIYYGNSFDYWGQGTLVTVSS VL: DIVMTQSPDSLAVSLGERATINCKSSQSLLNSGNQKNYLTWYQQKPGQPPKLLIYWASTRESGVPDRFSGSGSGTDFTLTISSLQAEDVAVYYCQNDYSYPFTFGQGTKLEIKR
9.02

Prompt: Fill in reported Killing percentage, ADCC (PBMC, HEK293-CLDN18.2 cells), 0 µg/ml for this entry: QP024025 (antibody, human IgG1, V domains shown, also called IMAB362; 175D10(IMAB362)) VH: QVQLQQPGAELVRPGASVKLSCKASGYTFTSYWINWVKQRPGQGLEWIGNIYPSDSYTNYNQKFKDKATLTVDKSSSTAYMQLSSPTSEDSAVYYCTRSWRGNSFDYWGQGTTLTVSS VL: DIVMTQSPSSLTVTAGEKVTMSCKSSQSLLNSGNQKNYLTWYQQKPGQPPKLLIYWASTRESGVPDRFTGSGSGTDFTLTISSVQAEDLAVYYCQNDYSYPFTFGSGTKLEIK
Response: -1.33
